The reported numbers originate from ChEMBL document CHEMBL5352424.

System: SH-SY5Y
Procedure text: Cytotoxicity against retinoic acid and TPA-differentiated human SH-SY5Y cells assessed as reduction in metabolic activity by measuring reduction in resorufin fluorescence at 10 to 50 uM incubated for 24 hrs by resazurin dye based assay
Assay type: toxicity, cell-based
Condition notes: dose 10-50 µM

{"Smiles text": "O=C(/C=C/C=C/c1ccc(O)c(O)c1)NCCc1ccccc1", "Activity": "Non-Toxic"}
{"Smiles text": "N#C/C(=C\\C=C\\c1ccc(O)c(O)c1)C(=O)NCCc1ccccc1", "Activity": "Non-Toxic"}
{"Smiles text": "O=C(O)/C=C/c1ccc(O)c(O)c1", "Activity": "Non-Toxic"}
{"Smiles text": "O=C(O)/C=C/C=C/c1ccc(O)c(O)c1", "Activity": "Non-Toxic"}
{"Smiles text": "N#C/C(=C\\C=C\\c1ccc(O)c(O)c1)C(=O)O", "Activity": "Non-Toxic"}
